target: SARS-COV-2 RBD extracellular domain expressed with a C-terminal myc-myc-hexahistidine tag (SARS-COV-2 RBD-mmH) (SARS-CoV-2); assay: SPR Biacore, mAb captured on anti-hFc, RBD-mmH analyte, 37 C
// values below are reported t½

{"BINDER": "mAb14283 (antibody, V domains shown) VH: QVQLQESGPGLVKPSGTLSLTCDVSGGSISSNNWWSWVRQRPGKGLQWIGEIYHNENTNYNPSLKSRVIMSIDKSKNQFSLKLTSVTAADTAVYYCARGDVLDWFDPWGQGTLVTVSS VL: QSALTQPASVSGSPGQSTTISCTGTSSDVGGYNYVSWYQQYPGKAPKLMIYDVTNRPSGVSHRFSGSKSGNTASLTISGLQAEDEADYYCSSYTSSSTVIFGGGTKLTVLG", "t½ [min]": 6.4}
{"BINDER": "mAb15160 (antibody, V domains shown) VH: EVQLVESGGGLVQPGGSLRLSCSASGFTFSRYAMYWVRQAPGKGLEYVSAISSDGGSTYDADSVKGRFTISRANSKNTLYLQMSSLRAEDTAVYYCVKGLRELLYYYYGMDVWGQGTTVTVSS VL: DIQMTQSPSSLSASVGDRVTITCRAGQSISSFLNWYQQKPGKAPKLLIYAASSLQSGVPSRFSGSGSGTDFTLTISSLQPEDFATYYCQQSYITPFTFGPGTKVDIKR", "t½ [min]": 5.9}
{"BINDER": "mAb14294 (antibody, V domains shown) VH: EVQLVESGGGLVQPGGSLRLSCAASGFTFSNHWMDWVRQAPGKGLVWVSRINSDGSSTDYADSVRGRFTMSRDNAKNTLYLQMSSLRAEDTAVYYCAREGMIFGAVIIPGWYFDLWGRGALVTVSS VL: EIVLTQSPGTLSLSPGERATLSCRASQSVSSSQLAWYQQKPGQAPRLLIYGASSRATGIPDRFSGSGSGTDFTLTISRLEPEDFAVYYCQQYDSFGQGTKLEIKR", "t½ [min]": 19.6}

FYI, the data here is from patent US20260069689A1.
